# Tested on: tumor cell lines
# procedure.summary: Cytotoxicity / growth inhibition, summary over several cell lines
# condition.set: 48 h, read-out: EC50 values against RPMI 8226 and the prostate cell lines
quantity.kind: EC50

Q: Give its EC50 value. Item: C[C@@]12OC(=O)[C@]1([C@@H](O)[C@@H]1C=CCCC1)NC(=O)[C@@H]2CCCl [Formula II-16, Salinosporamide A]
Result: 10 to 37 nM

###

Reported EC50 values for the following compounds.
# tested.system: PGPH (caspase-like) activity of rabbit muscle 20S proteasomes (Oryctolagus cuniculus)
# Sequence (A0A5F9DQW2 1-212): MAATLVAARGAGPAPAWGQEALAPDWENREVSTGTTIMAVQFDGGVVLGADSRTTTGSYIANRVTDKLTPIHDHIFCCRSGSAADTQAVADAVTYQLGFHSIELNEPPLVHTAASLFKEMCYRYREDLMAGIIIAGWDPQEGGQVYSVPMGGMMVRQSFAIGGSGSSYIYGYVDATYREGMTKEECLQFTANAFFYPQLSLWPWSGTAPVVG
# procedure.summary: Inhibition of caspase-like (PGPH) activity of 20S proteasome (Z-LLE-AMC)
# condition.set: Table 3; mean EC50; purified rabbit 20S proteasomes

Completed entries (count: 2):
# compound, EC50
data = [
    ("CC[C@H]1C(=O)N[C@@]2([C@@H](O)C3CCCCC3)C(=O)O[C@@]12C", "> 20 µM"),
    ("CC12OC(=O)C1(C(=O)C1C=CCCC1)NC(=O)C2CCCl (stereo not drawn) [Formula II-13C]", "> 20 µM"),
]

Field: next compound
Q: Request: EC50, test system PGPH (caspase-like) activity of rabbit muscle 20S proteasomes (Oryctolagus cuniculus), entry C[C@@]12OC(=O)[C@]1([C@@H](O)[C@H]1CCC[C@H](Cl)[C@H]1O)NC(=O)[C@@H]2CCCl
Result: > 20 µM

FYI, the data here is from patent US20050049294A1.
